# Test system: SN12C
# Assay Notes: NCI tumour cell line growth inhibition, 48 h
Active and inactive are the calls of the source. No stated cut-off is given here; in the data, active = GI50 up to about 1.1 µM and inactive = higher.

[
  {
    "Molecule": "CN(CCO)/N=N/c1[nH]cnc1C(N)=O",
    "GI50": "> 100 µM (inactive)"
  },
  {
    "Molecule": "CCOC(=O)C(=O)CC(=O)C(Br)C(Br)c1ccc(Cl)cc1 (configuration not stated)",
    "GI50": "30.3 µM (inactive)"
  },
  {
    "Molecule": "CCOC(=O)/C(=C\\c1ccc(N(CCC#N)CCC#N)cc1C)NC(=O)/C=C/c1ccccc1",
    "GI50": "> 100 µM (inactive)"
  },
  {
    "Molecule": "CN(C)c1nncc2[nH]cnc12",
    "GI50": "> 100 µM (inactive)"
  },
  {
    "Molecule": "COC(=O)C12CC(C3CC31)C1CC12 (configuration not stated)",
    "GI50": "> 100 µM (inactive)"
  },
  {
    "Molecule": "O=C1c2ccccc2C(=O)c2c1ccc(C(=O)O)c2-c1ccc2ccccc2c1",
    "GI50": "29.1 µM (inactive)"
  },
  {
    "Molecule": "COc1ccc(-n2c(CCC(=O)O)nc3c2C(=O)c2ccccc2C3=O)cc1",
    "GI50": "> 100 µM (inactive)"
  },
  {
    "Molecule": "O=C1c2ccccc2C(=O)c2oc(Br)cc21",
    "GI50": "0.953 µM (active)"
  },
  {
    "Molecule": "O=C(/C=C/c1c(O)ccc2ccccc12)c1ccccc1Cl",
    "GI50": "26.7 µM (inactive)"
  },
  {
    "Molecule": "O=C1C2CC=CCC2C(=O)C12CCc1ccccc12 (configuration not stated)",
    "GI50": "> 100 µM (inactive)"
  },
  {
    "Molecule": "C/C=C\\C1OC1(C)c1cc(=O)c2c(C)cc3c(c2o1)C(=O)c1c(O)c(C2CC(C)(N(C)C)C(OC(C)=O)C(C)O2)cc(C2CC(N(C)C)C(O)C(C)O2)c1C3=O (configuration not stated)",
    "GI50": "< 0.00375 µM (active)"
  },
  {
    "Molecule": "Cn1c(=O)c2c(-c3ccccc3)onc2n(C)c1=O",
    "GI50": "30.4 µM (inactive)"
  },
  {
    "Molecule": "Cc1cccc2c(N)c3cccc(C(=O)NCCN4CCOCC4)c3nc12",
    "GI50": "0.364 µM (active)"
  },
  {
    "Molecule": "CC(C)=CC(=O)CC(=O)C(=O)Nc1ccc(Cl)c(Cl)c1",
    "GI50": "> 100 µM (inactive)"
  },
  {
    "Molecule": "COC(=O)C1=NN2c3ccccc3C(=O)OCCC2(C)C1 (configuration not stated)",
    "GI50": "> 100 µM (inactive)"
  },
  {
    "Molecule": "N[C@H]1CCN(c2c(F)cc3c(=O)c(C(=O)O)cn4c3c2Oc2cc3c(ccc5ccccc53)cc2-4)C1",
    "GI50": "3.23 µM (inactive)"
  },
  {
    "Molecule": "COc1cc(/C=C2\\N=C(c3ccccc3)N(c3nc4ccc(Sc5ccccc5)cc4[nH]3)C2=O)ccc1O",
    "GI50": "26.9 µM (inactive)"
  },
  {
    "Molecule": "C#Cc1cccc(N2C(=O)CCC2=O)c1",
    "GI50": "18.5 µM (inactive)"
  },
  {
    "Molecule": "CC(C)c1ccc2c(c1)[C@@]1(C)CC[C@H](C)C(C)(C)C1CC2 (some centres not stated)",
    "GI50": "17.7 µM (inactive)"
  },
  {
    "Molecule": "CCN(CC)c1ccc(/C=C/C2=NN(c3cccc(S(=O)(=O)O)c3)C3(C2)C(Cl)C(=O)N3c2nc3ccccc3s2)cc1 (configuration not stated)",
    "GI50": "8.18 µM (inactive)"
  },
  {
    "Molecule": "N#CC1(Nc2ccc(-c3ccc(NC4(C#N)CCCC4)cc3)cc2)CCCC1",
    "GI50": "> 100 µM (inactive)"
  },
  {
    "Molecule": "CS(=O)(=O)OCC1CCCCCCCCCCC12SCCCS2 (configuration not stated)",
    "GI50": "> 100 µM (inactive)"
  }
]
